# EXPERIMENT: growth inhibition, single agent and combos, cell-based, chromothripsis tumors, cisplatin or BGB combos (AID 1671450);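 note: cells exposed to compound for four days; 0% = vehicle DMSO and 100% = cell killing by high DMSO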
# EXPERIMENTAL_CONDITIONS: HDN33 neuroblastoma cells, measured here: with BGB IC20 combination, at 0.5 µM, stronger effect = higher value
READOUT_LABEL: inhibition (%)
Return type: number; implicit unit %.

Would you please look over these solved cases?
>>> data_value("COc1ccc(-n2c(SCCCN3C(=O)c4cccc5cccc(c45)C3=O)nnc2-c2ccncc2)cc1")
-3.11
>>> data_value("CC(=O)Nc1ccc(C(=O)Nc2ccccc2N)cc1")
4.99
>>> data_value("CN(C)C/C=C/C(=O)Nc1ccc(C(=O)Nc2cccc(Nc3ncc(Cl)c(-c4c[nH]c5ccccc45)n3)c2)cc1")
43.5

Query: inhibition; subject: N=C1CCCN1Cc1[nH]c(=O)[nH]c(=O)c1Cl
3.45

Next up: CS(=O)(=O)c1ccc(-c2nnc(/C=C/c3nnc(-c4ccc(C#N)cc4)o3)n2-c2ccccc2Cl)nc1
33.7

Next up: CC(C)OC(=O)[C@H](C)N[P@](=O)(OC[C@H]1O[C@@H](n2ccc(=O)[nH]c2=O)[C@](C)(F)[C@@H]1O)Oc1ccccc1
-9.88

Next up: CO[C@H]1/C=C/O[C@@]2(C)Oc3c(C)c(O)c4c(O)c(c(/C=N\N5CCN(C6CCCC6)CC5)c(O)c4c3C2=O)NC(=O)/C(C)=C\C=C\[C@H](C)[C@H](O)[C@@H](C)[C@@H](O)[C@@H](C)[C@H](OC(C)=O)[C@@H]1C
-21.1
